Study system: Delta-type opioid receptor (Rattus norvegicus, UniProt P33533)
Sequence (P33533 whole entry): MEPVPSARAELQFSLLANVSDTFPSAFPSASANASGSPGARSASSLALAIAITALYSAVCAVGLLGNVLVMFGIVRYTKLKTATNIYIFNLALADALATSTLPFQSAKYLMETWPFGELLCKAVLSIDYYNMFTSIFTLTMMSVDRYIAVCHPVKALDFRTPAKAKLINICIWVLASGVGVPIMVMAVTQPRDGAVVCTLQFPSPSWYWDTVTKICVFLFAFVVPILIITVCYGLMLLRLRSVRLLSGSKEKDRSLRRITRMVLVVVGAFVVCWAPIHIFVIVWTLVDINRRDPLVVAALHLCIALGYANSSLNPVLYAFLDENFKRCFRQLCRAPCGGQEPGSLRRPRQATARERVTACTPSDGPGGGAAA
Experimental details: Binding affinity to delta opioid receptor in rat brain membrane
Measured attribute: pKi
Units for pKi: none; it is -log10 of a concentration expressed in mol/L.

Query: Please look up its pKi: CN1CC[C@]23c4c5ccc(O)c4O[C@H]2c2[nH]c4ccccc4c2C[C@@]3(O)[C@H]1C5 [OXYMORPHINDOLE]
Response: 9.10

###

Study system: Kappa-type opioid receptor (Rattus norvegicus, UniProt P34975)
Sequence (P34975 whole entry): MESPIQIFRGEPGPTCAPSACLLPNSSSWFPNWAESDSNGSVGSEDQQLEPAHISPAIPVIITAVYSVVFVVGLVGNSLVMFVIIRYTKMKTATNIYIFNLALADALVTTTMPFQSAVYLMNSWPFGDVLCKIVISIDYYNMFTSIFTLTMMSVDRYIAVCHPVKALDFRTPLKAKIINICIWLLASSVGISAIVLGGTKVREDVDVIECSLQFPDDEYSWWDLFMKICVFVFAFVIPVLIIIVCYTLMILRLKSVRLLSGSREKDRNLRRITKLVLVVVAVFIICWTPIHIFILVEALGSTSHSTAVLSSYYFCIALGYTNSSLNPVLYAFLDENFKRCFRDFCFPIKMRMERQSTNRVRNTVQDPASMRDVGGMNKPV
Parameter: pKi. Scope: all listed entries.
Units for pKi: none; it is -log10 of a concentration expressed in mol/L.

Query: Please look up its pKi: `Oc1ccc2c3c1O[C@H]1c4[nH]c5ccccc5c4C[C@@]4(O)[C@@H](C2)N(CC2CC2)CC[C@]314`
Response: 7.52

Query: Please look up its pKi: `CN1CC[C@]23c4c5ccc(O)c4O[C@H]2c2[nH]c4ccccc4c2C[C@@]3(O)[C@H]1C5`
Response: 5.66
